Quick reference: IC50 of the listed items.
# TESTED SYSTEM: Replicase polyprotein 1ab (Severe acute respiratory syndrome coronavirus 2, UniProt P0DTD1)
# ASSAY OVERVIEW: Inhibition of SARS-CoV-2 Main protease using Dabcyl-KLSAVLQSGFRKM-Edans-NH2 as substrate incubated for 30 mins by FRET based enzymatic assay
Hi! Could you send only the number? It should be in nM, unit omitted.

Record excerpt, results attached:
Cc1ccc(OCCN(C)C)cc1C(=O)N[C@H](C)c1cc(-c2cnn(CCO)c2)cc(-c2ccnn2C)c1
140
COCCn1cc(-c2cc(-c3cnn(CCO)c3)cc([C@@H](C)NC(=O)c3cc(OCCN(C)C)ccc3C)c2)cn1
100
COCCn1cc(-c2cc(-c3ccn(C)n3)cc([C@@H](C)NC(=O)c3cc(OCCN(C)C)ccc3C)c2)cn1
90
Cc1ccc(OCCN(C)C)cc1C(=O)N[C@H](C)c1cc(-c2cnn(C(F)F)c2)cc(-c2cnn(C3CC3)c2)c1
90
Cc1ccc(OCCN(C)C)cc1C(=O)N[C@H](C)c1cc(-c2cnn(CCN(C)C)c2)cc(-c2cccs2)c1
110

Incoming: Provide IC50 value for the following compound: `COCCn1cc(-c2cc(-c3cncs3)cc([C@@H](C)NC(=O)c3cc(OCCN(C)C)ccc3C)c2)cn1`
Outgoing: 110

Incoming: Provide IC50 value for the following compound: `Cc1ccc(OCCN(C)C)cc1C(=O)N[C@H](C)c1cc(-c2cnn(CCO)c2)cc(-c2cnn(C(F)F)c2)c1`
Outgoing: 90

Incoming: Provide IC50 value for the following compound: `Cc1ccc(OCCN(C)C)cc1C(=O)N[C@H](C)c1cc(-c2cnn(C(F)F)c2)cc(-c2cccs2)c1`
Outgoing: 70

Incoming: Provide IC50 value for the following compound: `Cc1ccc(OCCN(C)C)cc1C(=O)N[C@H](C)c1cc(-c2cnn(C(F)F)c2)cc(-c2ccn(C)n2)c1`
Outgoing: 90

---

Quick reference: IC50 of the listed items.
# TESTED SYSTEM: Replicase polyprotein 1ab (Severe acute respiratory syndrome coronavirus 2)
# ASSAY OVERVIEW: Inhibition of SARS-CoV-2 Main protease using Dabcyl-KLSAVLQSGFRKM-Edans-NH2 as substrate incubated for 30 mins by FRET based enzymatic assay
Hi! Could you send only the number? It should be in nM, unit omitted.

Record excerpt, results attached:
Cc1ccc(OCCN(C)C)cc1C(=O)N[C@H](C)c1cc(-c2cnn(C)c2)cc(-c2cccs2)c1
150
Cc1ccc(OCCN(C)C)cc1C(=O)N[C@H](C)c1cc(-c2cnn(C)c2)cc(-c2cnn(CC(N)=O)c2)c1
70

Incoming: Provide IC50 value for the following molecule: `Cc1ccc(OCCN(C)C)cc1C(=O)N[C@H](C)c1cc(-c2cnn(C)c2)cc(-c2ccc(CN3CCOCC3)o2)c1`
Outgoing: 120

Incoming: Provide IC50 value for the following molecule: `Cc1ccc(OCCN(C)C)cc1C(=O)N[C@H](C)c1cc(-c2cnn(CC3CCOCC3)c2)cc(-c2ccn(C)n2)c1`
Outgoing: 80

---

Quick reference: IC50 of the listed items.
# TESTED SYSTEM: Replicase polyprotein 1ab (Severe acute respiratory syndrome coronavirus 2)
# ASSAY OVERVIEW: Inhibition of SARS-CoV-2 wild type PLpro (1563 to 1878 residues) extracted from Escherichia coli Rosetta 2 (DE3) cells by Fluorescence polarization assay
Hi! Could you send only the number? It should be in µM, unit omitted.

COc1cc(CNC(=O)C2CC3(C2)CN([C@H](C)c2cccc4ccccc24)C3)ccn1
5.4
COc1cc(CNC(=O)C2CCN(C(C)c3cccc4ccccc34)CC2)ccn1 (racemic)
1.1

Incoming: Provide IC50 value for the following molecule: COc1cc(CNC(=O)C2CN(C(C)c3cccc4ccccc34)C2)ccn1 (racemic)
Outgoing: 27.3

Source of measurements: ChEMBL document CHEMBL6092147
